Every entry's value here was drawn from patent US6833372B2.

Test: Pharmacokinetics in rats (jugular vein cannula, plasma LC-MS)
Format: in vivo, Rat
Conditions: female, rat, plasma, po, 10 mg/kg, female rat; 10 mg/kg as 5 mg/ml solution in 10% DMSO, 10% cremophor, 80% saline (footnote 5); read-out: FR Tmax hr
Observed Property: Tmax (h)

{"columns": ["Compound", "Quantitative Readout"],
 "data": [
  ["CCN(CC)CCNc1nc(OC)c(NC(=O)c2ccc(Cc3cc4c(cc3C)C(C)(C)OC4(C)C)o2)c(OC)n1", 2],
  ["COc1nc(NCCCN(C)C)nc(OC)c1NC(=O)c1ccc(Cc2cc3c(cc2C)C(C)(C)OC3(C)C)o1", 2],
  ["COc1nc(OCCO)nc(OC)c1NC(=O)c1ccc(Cc2cc3c(cc2C)C(C)(C)OC3(C)C)o1", 1],
  ["COc1nc(NCCCN2CCOCC2)nc(OC)c1NC(=O)c1ccc(Cc2cc3c(cc2Cl)C(C)(C)CCC3(C)C)o1", 2]
]}

(1) COc1nc(Nc2ccccc2)nc(OC)c1NC(=O)c1ccc(Cc2cc3c(cc2C)C(C)(C)OC3(C)C)o1 [Example D1]
(2) COc1nc(OC)c(NC(=O)c2ccc(Cc3cc4c(cc3C)C(C)(C)CCC4(C)C)o2)c(OC)n1
Query: Form: Entry with minimum Tmax (choose one): 1 / 2 Your answer should be the label attached to the chosen record.
Response: 1
(1: 1 h, 2: 2 h)

* * *

Assay: Pharmacokinetics in rats (jugular vein cannula, plasma LC-MS)
Type: in vivo, Rat
Conditions: female, rat, plasma, po, 6 mg/kg, female rat; 6 mg/kg as 3 mg/ml solution in 6% DMSO, 6% cremophor, 88% saline (footnote 6); read-out: FR Cmax
Observed Property: Cmax (nM)
Respond with the bare value in nM.

Query: Given the entry COc1nc(N(C)C)nc(OC)c1NC(=O)c1ccc(Cc2cc3c(cc2C)C(C)(C)CCC3(C)C)o1 , report its measured Cmax.
Response: 900

* * *

Target: rat GnRH receptor (Rattus norvegicus, UniProt P30969)
Construct: or rat pituitaries (Pel Freez Biologicals, Rogers, Ark.) were homogenized; tissue Pel Freez Biologicals; host or cells: rat pituitaries (membrane preparation)
Sequence (P30969 whole entry): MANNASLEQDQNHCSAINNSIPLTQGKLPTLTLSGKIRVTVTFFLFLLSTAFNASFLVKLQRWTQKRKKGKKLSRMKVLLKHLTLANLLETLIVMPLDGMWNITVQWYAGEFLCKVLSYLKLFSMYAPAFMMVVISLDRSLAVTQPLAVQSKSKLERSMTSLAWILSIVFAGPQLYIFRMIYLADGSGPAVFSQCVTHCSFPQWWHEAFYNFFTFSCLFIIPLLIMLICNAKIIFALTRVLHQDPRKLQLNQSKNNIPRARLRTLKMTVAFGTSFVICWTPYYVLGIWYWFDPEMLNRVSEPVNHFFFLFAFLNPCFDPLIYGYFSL
Assay: Radioligand binding: inhibition of 125I-GnRH-A binding to rat GnRH receptor (rat pituitary membranes)
Conditions: read-out: Ki (nM), Inhibition Binding of 125I-GnRH-A to GnRH Receptors
Observed Property: Ki (nM)

Here are 3 molecules together with their reported answers.
{"columns": ["Molecule", "Ki [nM]"],
 "data": [
  ["COc1nc(Nc2ccccc2)nc(OC)c1NC(=O)c1ccc(Cc2cc3c(cc2C)C(C)(C)OC3(C)C)o1 [Example D1]", 2.1],
  ["COc1nc(N2CCOCC2)nc(OC)c1NC(=O)c1ccc(Cc2cc3c(cc2C)C(C)(C)CCC3(C)C)o1", 14],
  ["COc1nc(NCCCN2CCN(C)CC2)nc(OC)c1NC(=O)c1ccc(Cc2c(C)cc3c(c2C)C(C)(C)CCO3)o1", 16]
]}

(1) COc1nc(NCCNCCN)nc(OC)c1NC(=O)c1ccc(Cc2cc3c(cc2C)C(C)(C)OC3(C)C)o1
(2) COc1nc(NC2CCN(C)CC2)nc(OC)c1NC(=O)c1ccc(Cc2cc3c(cc2C)C(C)(C)OC3(C)C)o1
(3) COc1nc(NCCN(C)C)nc(OC)c1NC(=O)c1ccc(Cc2cc3c(cc2C)C(C)(C)OC3(C)C)o1
(4) CCCCC(CC)COCCCNc1nc(OC)c(NC(=O)c2ccc(Cc3cc4c(cc3C)C(C)(C)OC4(C)C)o2)c(OC)n1 (stereo not shown)
Query: Your job: order these 4 records by Ki, ascending. When ranking, write the labels in the order the request describes.
Response: 1, 3, 4, 2
(1: 0.8 nM, 3: 2.6 nM, 4: 5.4 nM, 2: 16 nM)
